# key: entry, value: Fold-Synergistic 1a (Q30E)
# Test system: HCV replicon, genotype-1a variant with glutamine 30 changed to glutamate in the NS5A protein
# TEST NAME: microbe, parasite or virus in culture
# Type: cell-based, HCV genotype 1a
# EXPERIMENTAL SETUP: HCV replicon genotype 1a Q30E (Q→E) variant; test compound titrated with an NS5A-targeting compound (BMS-790052 fixed at 200 nM); ranking of synergist activity

Solved entries:
[[record]]
compound = "O=C(c1csc(-c2cccnc2)n1)N1CCC[C@H]1c1ncc(-c2ccc(-c3ccc(-c4cnc([C@@H]5CCCN5C(=O)c5csc(-c6cccnc6)n5)[nH]4)cc3)cc2)[nH]1"
observed_value = ">10 fold"

[[record]]
compound = "COC(=O)N[C@H](C(=O)N[C@H](c1nc(-c2ccc(-c3ccc(-c4c[nH]c([C@@H](NC(=O)[C@@H](NC(=O)OC)C(C)C)C(C)(C)C)n4)cc3)cc2)c[nH]1)C(C)(C)C)C(C)C"
observed_value = ">100 fold"

[[record]]
compound = "CN(C(=O)C(=O)N[C@H](c1nc(-c2ccc(-c3ccc(-c4c[nH]c([C@@H](NC(=O)C(=O)N(C)C5CC5)C(C)(C)C)n4)cc3)cc2)c[nH]1)C(C)(C)C)C1CC1"
observed_value = ">100 fold"

[[record]]
compound = "CC(C)(C)OC(=O)N[C@]1(C(=O)N[C@H](c2nc(-c3ccc(-c4ccc(-c5c[nH]c([C@@H](NC(=O)[C@@]6(NC(=O)OC(C)(C)C)C[C@H]6CC(F)F)C(C)(C)C)n5)cc4)cc3)c[nH]2)C(C)(C)C)C[C@H]1CC(F)F"
observed_value = ">100 fold"

[[record]]
compound = "CC1([C@H](NC(=O)[C@@]2(C)CC(F)(F)CCO2)c2nc(-c3ccc(-c4ccc(-c5c[nH]c([C@@H](NC(=O)[C@@]6(C)CC(F)(F)CCO6)C6(C)CC6)n5)cc4)cc3)c[nH]2)CC1"
observed_value = ">100 fold"


Prompt: Entry under review: `COC(=O)c1ccccc1C(=O)N1CCC[C@H]1c1ncc(-c2ccc(-c3ccc(-c4cnc([C@@H]5CCCN5C(=O)c5ccccc5C(=O)OC)[nH]4)cc3)cc2)[nH]1` . Reported Fold-Synergistic 1a (Q30E)?
Completion: <10 fold

Prompt: Entry under review: Cc1c2c(nn1C)CCC(C(=O)N[C@H](c1nc(-c3ccc(-c4ccc(-c5c[nH]c([C@@H](NC(=O)C6CCc7nn(C)c(C)c7C6)C(C)(C)C)n5)cc4)cc3)c[nH]1)C(C)(C)C)C2 (stereo partly drawn) . Reported Fold-Synergistic 1a (Q30E)?
Completion: >100 fold

Prompt: Entry under review: `CC(C)OC(=O)N1C[C@H](F)C[C@H]1C(=O)N[C@H](c1nc(-c2ccc(-c3ccc(-c4c[nH]c([C@@H](NC(=O)[C@@H]5C[C@@H](F)CN5C(=O)OC(C)C)C(C)(C)C)n4)cc3)cc2)c[nH]1)C(C)(C)C` . Reported Fold-Synergistic 1a (Q30E)?
Completion: >100 fold

Prompt: Entry under review: `CC(C)(C)OC(=O)N1CCOC[C@H]1C(=O)N[C@H](c1nc(-c2ccc(-c3ccc(-c4c[nH]c([C@@H](NC(=O)[C@@H]5COCCN5C(=O)OC(C)(C)C)C(C)(C)C)n4)cc3)cc2)c[nH]1)C(C)(C)C` . Reported Fold-Synergistic 1a (Q30E)?
Completion: >100 fold

###

# key: entry, value: Fold-Synergistic 1a (Q30E)
# Test system: HCV replicon, genotype-1a variant with glutamine 30 changed to glutamate in the NS5A protein
# TEST NAME: microbe, parasite or virus in culture
# Format: cell-based, HCV genotype 1a
# EXPERIMENTAL SETUP: HCV replicon genotype 1a Q30E (Q→E) variant; test compound titrated with an NS5A-targeting compound (BMS-790052 fixed at 200 nM); ranking of synergist activity

Solved entries:
[[record]]
compound_string = "CC(C)CC(=O)N[C@H](c1ncc(-c2ccc(C#Cc3ccc(-c4cnc([C@@H](NC(=O)CC(C)C)C(C)C)[nH]4)cc3)cc2)[nH]1)C(C)C"
observed_value = ">10 fold"

[[record]]
compound_string = "O=C(Cc1ccc(Oc2ccccc2)cc1)N1CCC[C@H]1c1ncc(-c2ccc(-c3ccc(-c4cnc([C@@H]5CCCN5C(=O)Cc5ccc(Oc6ccccc6)cc5)[nH]4)cc3)cc2)[nH]1"
observed_value = ">10 fold"

[[record]]
compound_string = "CC(C)(CO)C(=O)N[C@H](c1nc(-c2ccc(-c3ccc(-c4c[nH]c([C@@H](NC(=O)C(C)(C)CO)C(C)(C)C)n4)cc3)cc2)c[nH]1)C(C)(C)C"
observed_value = ">100 fold"

[[record]]
compound_string = "CC(C)CC(=O)N[C@@H](c1ccccc1)c1nc(-c2ccc(-c3ccc(-c4c[nH]c([C@@H](NC(=O)CC(C)C)c5ccccc5)n4)cc3)cc2)c[nH]1"
observed_value = ">100 fold"


Now examine the next entry.
Prompt: Entry under review: `C=C1CCC(C(=O)N[C@H](c2nc(-c3ccc(-c4ccc(-c5c[nH]c([C@@H](NC(=O)C6CCC(=C)CC6)C(C)(C)C)n5)cc4)cc3)c[nH]2)C(C)(C)C)CC1` . Reported Fold-Synergistic 1a (Q30E)?
Completion: >100 fold

###

# System: HCV replicon, genotype-1a variant with glutamine 30 changed to glutamate in the NS5A protein
# TEST NAME: microbe, parasite or virus in culture
# Assay type: cell-based, HCV genotype 1a
# EXPERIMENTAL SETUP: HCV replicon genotype 1a Q30E (Q→E) variant; test compound titrated with an NS5A-targeting compound (BMS-790052 fixed at 200 nM); ranking of synergist activity
# key: entry, value: Fold-Synergistic 1a (Q30E)

Solved entries:
[[record]]
compound_string = "CC(C)(C(=O)N[C@H](c1nc(-c2ccc(-c3ccc(-c4c[nH]c([C@@H](NC(=O)C(C)(C)C(=O)N5CC(O)C5)C(C)(C)C)n4)cc3)cc2)c[nH]1)C(C)(C)C)C(=O)N1CC(O)C1"
observed_value = ">10 fold"

[[record]]
compound_string = "CC(C)(C)[C@H](NC(=O)C(=O)N(CCC#N)C1CC1)c1nc(-c2ccc(-c3ccc(-c4c[nH]c([C@@H](NC(=O)C(=O)N(CCC#N)C5CC5)C(C)(C)C)n4)cc3)cc2)c[nH]1"
observed_value = ">100 fold"


Now examine the next entry.
Prompt: Entry under review: `CC[C@H](NC(=O)[C@@H](NC(=O)OC)C(C)C)c1nc(-c2ccc(-c3ccc(-c4c[nH]c([C@H](CC)NC(=O)[C@@H](NC(=O)OC)C(C)C)n4)cc3)cc2)c[nH]1` . Reported Fold-Synergistic 1a (Q30E)?
Completion: >10 fold

###

# Test system: HCV replicon, genotype-1a variant with glutamine 30 changed to glutamate in the NS5A protein
# TEST NAME: microbe, parasite or virus in culture
# Type: cell-based, HCV genotype 1a
# EXPERIMENTAL SETUP: HCV replicon genotype 1a Q30E (Q→E) variant; test compound titrated with an NS5A-targeting compound (BMS-790052 fixed at 200 nM); ranking of synergist activity
OBSERVABLE: Fold-Synergistic 1a (Q30E)

Prompt: Entry under review: CCN(CC(F)(F)F)C(=O)C(=O)N[C@H](c1nc(-c2ccc(-c3ccc(-c4c[nH]c([C@@H](NC(=O)C(=O)N(CC)CC(F)(F)F)C(C)(C)C)n4)cc3)cc2)c[nH]1)C(C)(C)C [Compound W-37] . Reported Fold-Synergistic 1a (Q30E)?
Completion: >100 fold

Prompt: Entry under review: CC(C)(C)[C@H](NC(=O)C(=O)N1CC[C@H](F)C1)c1nc(-c2ccc(-c3ccc(-c4c[nH]c([C@@H](NC(=O)C(=O)N5CC[C@H](F)C5)C(C)(C)C)n4)cc3)cc2)c[nH]1 [Compound W-27] . Reported Fold-Synergistic 1a (Q30E)?
Completion: >100 fold

Prompt: Entry under review: CC1(C(=O)N[C@H](c2nc(-c3ccc(-c4ccc(-c5c[nH]c([C@@H](NC(=O)C6(C)COC(c7ccccc7)OC6)C(C)(C)C)n5)cc4)cc3)c[nH]2)C(C)(C)C)COC(c2ccccc2)OC1 (some centres unmarked) [Compound S-280] . Reported Fold-Synergistic 1a (Q30E)?
Completion: >100 fold

Prompt: Entry under review: CC1([C@H](NC(=O)[C@H]2C[C@@H]3CC(F)(F)C[C@@H]3C2)c2nc(-c3ccc(-c4ccc(-c5c[nH]c([C@@H](NC(=O)[C@H]6C[C@@H]7CC(F)(F)C[C@@H]7C6)C6(C)CC6)n5)cc4)cc3)c[nH]2)CC1 [Compound P-140] . Reported Fold-Synergistic 1a (Q30E)?
Completion: >100 fold

Prompt: Entry under review: CCCCCC(=O)N1CCC[C@H]1c1ncc(-c2ccc(-c3ccc(-c4cnc([C@@H]5CCCN5C(=O)CCCCC)[nH]4)cc3)cc2)[nH]1 [Compound S-181] . Reported Fold-Synergistic 1a (Q30E)?
Completion: >10 fold
